Experiment: AUC (0 to t) in mouse at 10 mg/kg, iv
Type: ADME, organism-based
Conditions: in vivo
Attribute Measured: AUC(0-t) (ng·h/mL)

>  <Compound>
CCCCCCCCn1cc(C(=O)OCC)c(=O)c2cc(F)c([C-](C#N)C(=O)OCC)cc21.[Na+] (stereo unspecified)

>  <Attribute Measured>
AUC(0-t)

>  <Measured>
89.3

$$$$

----------
Tested on: Escherichia coli
Assay: Antibacterial activity against Escherichia coli ATCC 25922 assessed growth inhibition by micro broth dilution method
Type: functional
# Lookup of reported MIC keyed by entry

>  <Compound>
CCCn1cc(C(=O)OCC)c(=O)c2cc(F)c(F)cc21

>  <Target>
Escherichia coli

>  <Measurement Units>
µg/mL

>  <MIC>
128

$$$$
>  <Compound>
CCOC(=O)c1cn(C2CC2)c2cc(C(C#N)C(=O)OCC)c(F)cc2c1=O (stereo unspecified)

>  <Target>
Escherichia coli

>  <Measurement Units>
µg/mL

>  <MIC>
32

$$$$
>  <Compound>
CCOC(=O)c1cn(Cc2ccccc2)c2cc(F)c(F)cc2c1=O

>  <Target>
Escherichia coli

>  <Measurement Units>
µg/mL

>  <MIC>
128

$$$$
>  <Compound>
CCOC(=O)c1cn(Cc2ccc(C)cc2)c2cc([C-](C#N)C(=O)OCC)c(F)cc2c1=O.[Na+] (stereo unspecified)

>  <Target>
Escherichia coli

>  <Measurement Units>
µg/mL

>  <MIC>
1

$$$$
>  <Compound>
CCOC(=O)C(C#N)c1cc2c(cc1F)c(=O)c(C(=O)O)cn2CC (stereo unspecified)

>  <Target>
Escherichia coli

>  <Measurement Units>
µg/mL

>  <MIC>
0.5

$$$$
>  <Compound>
CCCCCCn1cc(C(=O)OCC)c(=O)c2cc(F)c(F)cc21

>  <Target>
Escherichia coli

>  <Measurement Units>
µg/mL

>  <MIC>
64

$$$$

Hello, the source for this data is ChEMBL document CHEMBL5528028, in case you need it.
